Here the recorded pKd is given for each entry.
Biological target: T1, COVID-19 nucleocapsid protein (N-protein) (severe acute respiratory syndrome …, UniProt P0DTC9 1-419)
T1 construct: also called nucleocapsid protein (N-protein) of severe acute respiratory syndrome coronavirus 2 (SARS-CoV-2)
Test: bio-layer interferometry (BLI)
pKd: −log10 of the molar value.

>  <binder>
ACIVGYCPATDDFCA (Ci, Cii and Ciii cysteines covalently bound to TBMT scaffold) [BCY16571]

>  <pKd>
6.10

$$$$
>  <binder>
ACTNLDWAYCYIHNQCA (Ci, Cii and Ciii cysteines covalently bound to TATA scaffold) [BCY19570]

>  <pKd>
6.01

$$$$
>  <binder>
ACTVDVCELTGLHIPCA (Ci, Cii and Ciii cysteines covalently bound to TATA scaffold) [BCY19565]

>  <pKd>
6.08

$$$$
